organism: Mus musculus; assay: Antagonistic activity against tetrabenazine-induced ptosis in mice.; format: functional
log10 of ED50 reference
Measurement Label: log10 of ED50 (log10 of the value in µmol/kg)

Molecule: CN(C)C1CC(c2ccc(Cl)cc2)c2ccccc21 (stereo in doubt; 35)
Measurement Label: log10 of ED50
Reported Measurement: 1.75

Molecule: CNC1CC(c2cccc(Cl)c2)c2ccccc21.Cl (stereo in doubt; 66)
Measurement Label: log10 of ED50
Reported Measurement: 2.08

Molecule: CNC1CC(c2ccc(Cl)c(Cl)c2)c2ccc(F)cc21.Cl (stereo in doubt; 50)
Measurement Label: log10 of ED50
Reported Measurement: 1.52

Molecule: CN(C)C1CC(c2cccc(Cl)c2)c2ccccc21.Cl (stereo in doubt; 67)
Measurement Label: log10 of ED50
Reported Measurement: 1.93

Molecule: CCCN(CCC)C1CC(c2ccc(Cl)c(Cl)c2)c2ccccc21.Cl (stereo in doubt; 89)
Measurement Label: log10 of ED50
Reported Measurement: 1.40

Molecule: CCN(CC)C1CC(c2ccc(Cl)c(Cl)c2)c2ccccc21.Cl (stereo in doubt; 85)
Measurement Label: log10 of ED50
Reported Measurement: 1.72

Molecule: CN(C)C1CC(c2ccc(Cl)cc2Cl)c2ccccc21.Cl (stereo in doubt; 49)
Measurement Label: log10 of ED50
Reported Measurement: 1.36

Molecule: CN(C)C1CC(c2ccc(F)c(F)c2)c2ccccc21 (stereo not given)
Measurement Label: log10 of ED50
Reported Measurement: 1.11

Molecule: CNC1CC(c2ccc(F)cc2)c2ccccc21.Cl (stereo in doubt; 32)
Measurement Label: log10 of ED50
Reported Measurement: 1.28

Molecule: CN(C)C1CC(c2ccc(F)cc2)c2ccc(F)cc21.Cl (stereo not given)
Measurement Label: log10 of ED50
Reported Measurement: 1.45

Molecule: CNC1CC(c2ccc(F)cc2)c2ccccc21.Cl (stereo in doubt; 60)
Measurement Label: log10 of ED50
Reported Measurement: 1.90

Molecule: CN(C)C1CC(c2ccccc2)c2ccccc21.Cl (stereo in doubt; 31)
Measurement Label: log10 of ED50
Reported Measurement: 1.23

Molecule: CN(C)C1CC(c2ccc(F)c(Cl)c2)c2ccccc21.Cl (stereo in doubt; 44)
Measurement Label: log10 of ED50
Reported Measurement: 0.65

Molecule: CNC1CC(c2cccc(Cl)c2)c2ccccc21.Cl (stereo in doubt; 39)
Measurement Label: log10 of ED50
Reported Measurement: 1.65

Molecule: CN(C)C1CC(c2ccc(F)cc2)c2ccccc21.Cl (stereo in doubt; 61)
Measurement Label: log10 of ED50
Reported Measurement: 1.38

* * *

molecular target: Sodium-dependent dopamine transporter (Rattus norvegicus); assay: Inhibition of dopamine uptake in rat synaptosomal fraction
Sequence (P23977 whole entry): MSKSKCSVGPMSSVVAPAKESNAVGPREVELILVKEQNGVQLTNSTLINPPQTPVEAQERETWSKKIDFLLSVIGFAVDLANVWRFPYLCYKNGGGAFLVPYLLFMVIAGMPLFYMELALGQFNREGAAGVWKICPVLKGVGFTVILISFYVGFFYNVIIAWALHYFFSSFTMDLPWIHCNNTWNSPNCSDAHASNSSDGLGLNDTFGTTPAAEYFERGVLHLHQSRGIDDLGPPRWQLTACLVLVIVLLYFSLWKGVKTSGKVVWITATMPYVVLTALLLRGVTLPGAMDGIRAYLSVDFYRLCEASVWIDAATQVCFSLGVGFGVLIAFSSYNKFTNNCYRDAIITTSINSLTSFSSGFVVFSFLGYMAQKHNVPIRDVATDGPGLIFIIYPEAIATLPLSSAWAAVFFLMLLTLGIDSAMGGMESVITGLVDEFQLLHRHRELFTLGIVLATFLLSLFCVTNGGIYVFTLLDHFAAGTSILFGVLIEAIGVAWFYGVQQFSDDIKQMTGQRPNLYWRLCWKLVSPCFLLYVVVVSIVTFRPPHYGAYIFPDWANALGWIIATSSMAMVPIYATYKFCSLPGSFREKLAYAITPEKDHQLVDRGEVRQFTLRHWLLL
Please respond with Condition met when measured IC50 is strictly beneath 100 nM, and with Condition not met in all other cases.

Molecule: CNC1CC(c2ccc(F)c(F)c2)c2ccccc21.Cl (stereo in doubt; 41)
Test Target: Sodium-dependent dopamine transporter (Rattus norvegicus)
Label Value: Condition met

Molecule: CN(C)C1CC(c2ccc(Br)cc2)c2ccccc21 (stereo in doubt; 37)
Test Target: Sodium-dependent dopamine transporter (Rattus norvegicus)
Label Value: Condition met

Molecule: CN1CCN(C2CC(c3ccc(Cl)c(Cl)c3)c3ccccc32)CC1 (stereo in doubt; 102)
Test Target: Sodium-dependent dopamine transporter (Rattus norvegicus)
Label Value: Condition met

Molecule: CNC1CC(c2ccc(Cl)cc2)c2ccccc21.Cl (stereo not given)
Test Target: Sodium-dependent dopamine transporter (Rattus norvegicus)
Label Value: Condition not met

Values compiled from ChEMBL document CHEMBL1122866.
